Reference source for all entries: patent US4048299A

System: Streptococcus spp. KI-R
experimental.protocol: Growth inhibition by aldehydes in product vehicles, pour-plate technique
Type: cell-based
experimental.setup: in tooth powder (aqueous extract), 1 to 5 percent aldehyde, 2 h incubation
Here the recorded Growth Inhibition is given for each entry.
observation.type: Growth Inhibition (Per cent)

* CCCCCCCCCCCC=O [Lauric aldehyde] | 99.2
* CC(=O)C=O [Pyruvaldehyde] | 100
* O=C[C@H](O)CO (racemic) [d,1-Glyceraldehyde] | 99.88

----------
System: Lactobacillus casei ATCC 4646
experimental.protocol: Growth inhibition by aldehydes in product vehicles, pour-plate technique
Assay type: cell-based
experimental.setup: in sucrose syrup, 1 to 5 percent aldehyde, 5 h incubation
observation.type: Growth Inhibition

• CC(=O)C=O = > 99.99 Per cent
• CCCCCCCCCC=O = > 99.9 Per cent
• O=C[C@H](O)CO (racemic) = N.S.
• O=CCCCC=O = N.S.
• O=CCO = 93 Per cent
